System: K24384-001-R-PDC KRAS patient-derived spheroid viability;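 note: spheroids exposed to agents for 7 days before readout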
Assay: Anticancer human tumor K24384-001-R-PDC patient-derived pancreatic adenocarcinoma cell line growth inhibition [KRAS2]
Conditions: curve of first compound; second compound 10 µM; spheroids with HUVEC and MSC
What IC50 was measured for each of the following?

input: Could you tell me which IC50 is on file for Cn1ncnc1[C@H]1c2n[nH]c(=O)c3cc(F)cc(c23)N[C@@H]1c1ccc(F)cc1 + C=CC(=O)N1CCN(c2nc(=O)n(-c3c(C)ccnc3C(C)C)c3nc(-c4c(O)cccc4F)c(F)cc23)C(C)C1 ?
output: > 100 nM

input: Could you tell me which IC50 is on file for COc1cc(Nc2ncc3c(n2)-c2ccc(Cl)cc2C(c2c(F)cccc2OC)=NC3)ccc1C(=O)O + C=CC(=O)N1CCN(c2nc(=O)n(-c3c(C)ccnc3C(C)C)c3nc(-c4c(O)cccc4F)c(F)cc23)C(C)C1 ?
output: < 31.6 nM

input: Could you tell me which IC50 is on file for CC1COCCN1c1cc(-c2ccnn2C)c2ccnc(-c3ccn[nH]3)c2n1 (centres undefined) + CNCc1ccccc1-c1csc(C(C)Nc2nc(C)nc3cc(OC)c(OC)cc23)c1 ?
output: < 10 nM

input: Could you tell me which IC50 is on file for CC(=O)OC12COC1CC(O)C1(C)C(=O)C(O)C3=C(C)C(OC(=O)C(O)C(NC(=O)OC(C)(C)C)c4ccccc4)CC(O)(C(OC(=O)c4ccccc4)C21)C3(C)C (centres undefined) + C=CC(=O)N1CCN(c2nc(=O)n(-c3c(C)ccnc3C(C)C)c3nc(-c4c(O)cccc4F)c(F)cc23)C(C)C1 ?
output: 58.7 nM

input: Could you tell me which IC50 is on file for CC(=O)OC12COC1CC(O)C1(C)C(=O)C(O)C3=C(C)C(OC(=O)C(O)C(NC(=O)OC(C)(C)C)c4ccccc4)CC(O)(C(OC(=O)c4ccccc4)C21)C3(C)C (centres undefined) + CC1OCC2(CCN(c3cnc(Sc4ccnc(N)c4Cl)c(N)n3)CC2)C1N ?
output: < 10 nM

input: Could you tell me which IC50 is on file for CC(C)NCC(C(=O)N1CCN(c2ncnc3c2C(C)CC3O)CC1)c1ccc(Cl)cc1 (centres undefined) + CNCc1ccccc1-c1csc(C(C)Nc2nc(C)nc3cc(OC)c(OC)cc23)c1 ?
output: < 31.6 nM

input: Could you tell me which IC50 is on file for CN(C)C/C=C/C(=O)Nc1cc2c(Nc3ccc(F)c(Cl)c3)ncnc2cc1O[C@H]1CCOC1 + C=CC(=O)N1CCN(c2nc(=O)n(-c3c(C)ccnc3C(C)C)c3nc(-c4c(O)cccc4F)c(F)cc23)C(C)C1 ?
output: 68.5 nM

input: Could you tell me which IC50 is on file for Cn1nccc1Nc1nccc(-c2cc3c(s2)C(C)(C)N(CCN2CCOCC2)C3=O)n1 + CC1OCC2(CCN(c3cnc(Sc4ccnc(N)c4Cl)c(N)n3)CC2)C1N ?
output: < 31.6 nM

input: Could you tell me which IC50 is on file for COc1cc2nccc(Oc3ccc(NC(=O)C4(C(=O)Nc5ccc(F)cc5)CC4)cc3)c2cc1OC + C=CC(=O)N1CCN(c2nc(=O)n(-c3c(C)ccnc3C(C)C)c3nc(-c4c(O)cccc4F)c(F)cc23)C(C)C1 ?
output: < 31.6 nM

input: Could you tell me which IC50 is on file for Cn1nccc1Nc1nccc(-c2cc3c(s2)C(C)(C)N(CCN2CCOCC2)C3=O)n1 + C=CC(=O)N1CCN(c2nc(=O)n(-c3c(C)ccnc3C(C)C)c3nc(-c4c(O)cccc4F)c(F)cc23)C(C)C1 ?
output: 61.8 nM

input: Could you tell me which IC50 is on file for CC1(C)CCC(CN2CCN(c3ccc(C(=O)NS(=O)(=O)c4ccc(NCC5CCOCC5)c([N+](=O)[O-])c4)c(Oc4cnc5[nH]ccc5c4)c3)CC2)=C(c2ccc(Cl)cc2)C1 + CC1OCC2(CCN(c3cnc(Sc4ccnc(N)c4Cl)c(N)n3)CC2)C1N ?
output: 1730 nM

input: Could you tell me which IC50 is on file for CN(C)C/C=C/C(=O)Nc1cc2c(Nc3ccc(F)c(Cl)c3)ncnc2cc1O[C@H]1CCOC1 + COc1cc2nc(C)nc(NC(C)c3cc(N)cc(C(F)(F)F)c3)c2cc1OC1CCOC1 ?
output: > 100 nM

input: Could you tell me which IC50 is on file for CCN1CCN(Cc2ccc(Nc3ncc(F)c(-c4cc(F)c5nc(C)n(C(C)C)c5c4)n3)nc2)CC1 + COc1cc2nc(C)nc(NC(C)c3cc(N)cc(C(F)(F)F)c3)c2cc1OC1CCOC1 ?
output: 542 nM

input: Could you tell me which IC50 is on file for CC1(C)CCC(CN2CCN(c3ccc(C(=O)NS(=O)(=O)c4ccc(NCC5CCOCC5)c([N+](=O)[O-])c4)c(Oc4cnc5[nH]ccc5c4)c3)CC2)=C(c2ccc(Cl)cc2)C1 + C=CC(=O)N1CCN(c2nc(=O)n(-c3c(C)ccnc3C(C)C)c3nc(-c4c(O)cccc4F)c(F)cc23)C(C)C1 ?
output: 433 nM

input: Could you tell me which IC50 is on file for CC1COCCN1c1cc(-c2ccnn2C)c2ccnc(-c3ccn[nH]3)c2n1 (centres undefined) + C=CC(=O)N1CCN(c2nc(=O)n(-c3c(C)ccnc3C(C)C)c3nc(-c4c(O)cccc4F)c(F)cc23)C(C)C1 ?
output: 34.4 nM

input: Could you tell me which IC50 is on file for O=C(c1cc(Cc2n[nH]c(=O)c3ccccc23)ccc1F)N1CCN(C(=O)C2CC2)CC1 + CC1OCC2(CCN(c3cnc(Sc4ccnc(N)c4Cl)c(N)n3)CC2)C1N ?
output: > 10000 nM

input: Could you tell me which IC50 is on file for COC(=O)c1ccc2c(C(=Nc3ccc(N(C)C(=O)CN4CCN(C)CC4)cc3)c3ccccc3)c(O)[nH]c2c1 + CNCc1ccccc1-c1csc(C(C)Nc2nc(C)nc3cc(OC)c(OC)cc23)c1 ?
output: < 31.6 nM

input: Could you tell me which IC50 is on file for CC1OCC2(CCN(c3cnc(Sc4ccnc(N)c4Cl)c(N)n3)CC2)C1N (centres undefined) + C=CC(=O)N1CCN(c2nc(=O)n(-c3c(C)ccnc3C(C)C)c3nc(-c4c(O)cccc4F)c(F)cc23)C(C)C1 ?
output: < 31.6 nM

input: Could you tell me which IC50 is on file for CC(=O)Nc1cccc(-n2c(=O)n(C3CC3)c(=O)c3c(Nc4ccc(I)cc4F)n(C)c(=O)c(C)c32)c1 + C=CC(=O)N1CCN(c2nc(=O)n(-c3c(C)ccnc3C(C)C)c3nc(-c4c(O)cccc4F)c(F)cc23)C(C)C1 ?
output: < 0.1 nM
